# Tested On: hEP3A/Gqi5 (Homo sapiens)
# Construct: expressed in transfected cells; host or cells: HEK-293(EBNA)
# Sequence (P43115 whole entry): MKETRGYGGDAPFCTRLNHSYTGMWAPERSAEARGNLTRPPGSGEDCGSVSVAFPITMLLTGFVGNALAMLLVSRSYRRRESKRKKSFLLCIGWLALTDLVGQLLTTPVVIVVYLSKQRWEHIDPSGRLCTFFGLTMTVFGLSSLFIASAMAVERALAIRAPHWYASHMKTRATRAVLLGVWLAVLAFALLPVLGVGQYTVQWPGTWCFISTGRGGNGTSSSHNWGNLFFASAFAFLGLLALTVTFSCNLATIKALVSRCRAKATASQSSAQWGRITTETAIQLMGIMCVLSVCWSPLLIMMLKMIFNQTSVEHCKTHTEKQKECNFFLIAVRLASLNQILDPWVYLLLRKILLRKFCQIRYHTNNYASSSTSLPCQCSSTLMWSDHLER
# Protocol Summary: FLIPR calcium signal, EP3
# Format: cell-based
# Test Settings: HEK-293(EBNA) cells, read-out: Ca2+ Signal-EC50(nM) EP3
Value Type: EC50 (nM)
Field: numeric (nM). Do not append units.

Per the records, this molecule ( CCCCCC(O)c1ccc([C@@H]2[C@@H](C/C=C\CCCC(=O)O)[C@H](C#N)C[C@H]2O)cc1 (stereo partly shown) ) has EC50 equal to 10000

* * *

# Tested On: human EP2 receptors (Homo sapiens)
# Construct: expressed in transfected cells; host or cells: HEK 293 (membranes or whole cells)
# Sequence (P43116 whole entry): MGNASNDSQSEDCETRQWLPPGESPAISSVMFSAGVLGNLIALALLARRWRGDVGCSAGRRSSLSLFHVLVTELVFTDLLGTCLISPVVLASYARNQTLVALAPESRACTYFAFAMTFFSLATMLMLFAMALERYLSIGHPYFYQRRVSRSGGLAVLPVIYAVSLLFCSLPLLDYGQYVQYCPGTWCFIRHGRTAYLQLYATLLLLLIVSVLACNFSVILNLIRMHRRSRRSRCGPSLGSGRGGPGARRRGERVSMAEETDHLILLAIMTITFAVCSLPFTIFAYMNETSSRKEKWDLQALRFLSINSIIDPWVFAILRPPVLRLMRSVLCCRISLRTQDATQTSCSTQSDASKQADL
# Protocol Summary: Competition radioligand binding, EP2
# Test Settings: HEK 293 cells stably expressing human EP2 receptors, [3H]PGE2
Value Type: Ki (nM)
Field: numeric (nM). Do not append units.

Per the records, this compound ( CCCCCC(O)c1ccc([C@@H]2[C@@H](C/C=C\CCCC(=O)O)[C@H](C#N)C[C@H]2O)cc1 (stereo partly shown) ) has Ki equal to 1250
